# Test system: LN18 glioblastoma cell line
# assay info: In-vitro cell survival assay (Alamar blue), LN18
# Type: cell-based
# experimental conditions: Homo sapiens, LN-18, 24 h; LN18, one day after compound addition
Mark true (1) for EC50 under 20 µM, false (0) if at or over.

// known answers, use as guide
1. Cc1cccc(Nc2nccc(Nc3cccc(C(=O)N(C)CCCN(C)C)c3)n2)c1 [drawing 425]    false (0)
2. Nc1nc(Nc2ccc(C(=O)NCc3ccco3)cc2)cc(Nc2ccc3ncsc3c2)n1 [drawing 375]    true (1)
3. NC1CCN(C(=O)c2cccc(Nc3ncc(Cl)c(Nc4ccc5ncsc5c4)n3)c2)CC1 [drawing 469]    false (0)
4. Cc1cccc(C(=O)n2nc(-c3ccco3)nc2NCc2ccccc2)c1 [drawing 431]    false (0)
5. Nc1nc(Nc2ccc(C(=O)N3CCCCCC3)cc2)cc(Nc2ccc3ncsc3c2)n1 [drawing 409]    true (1)

Ask | Strictly below 20 µM: is that where EC50 of Clc1ccc(CNc2cc(-c3ccccc3)ncn2)cc1 [drawing 383] sits?
Reply | false (0)

Ask | One more molecule: Cc1ccc(NC=C2C(=O)NN=C2c2ccccc2)cc1 [drawing 370]
Reply | false (0)

Ask | One more molecule: O=C(c1cccc(Nc2ncc(Cl)c(Nc3ccc4ncsc4c3)n2)c1)N1CCCCC1 [drawing 465]
Reply | true (1)

Ask | One more molecule: CCN(CCO)c1nc(Nc2ccc(F)cc2)c2cnn(-c3ccccc3)c2n1 [drawing 386]
Reply | true (1)
